The entries below are paired with their reported protein stability index.
- assay: protein stability index of a GFP-peptide fusion (yeast GPS) (PSI 1-4); higher = more stable; sorted into four equal gates, so the index is relative within each strain
- experimentalContext: ubr1∆
// keep it numeric: no unit symbol after the value

[
  {
    "seqString": "LIVIDVVEGVTFVVEQL [SNU114]",
    "endpoint": "protein stability index",
    "dataValue": 2.92
  },
  {
    "seqString": "LQSLTSKGYVKTQFSWQ [RPS10A]",
    "endpoint": "protein stability index",
    "dataValue": 3.07
  },
  {
    "seqString": "SNIPNLLRNLESKMRQQ [YDL088C/ASM4]",
    "endpoint": "protein stability index",
    "dataValue": 3.07
  },
  {
    "seqString": "QPLFSTVPEYLKTADNR [PGD1]",
    "endpoint": "protein stability index",
    "dataValue": 2.96
  }
]

Can you look up the measured protein stability index of NPLIELTPIQKKIMDET [ITC1] for me?
3.07

Queued: LEKERSILDDIKLSLKD [SMC4]
2.91

Also AKKNNFIEDLAPEQQVQ [UBP6] , if possible.
3.06

Thanks! And TESPLKTVDSSIQPIES [SSN2] ?
2.93

Try this sequence next: IYNKMIGVLNNSSESDE [RPN13]
2.94

// next record SLQYINIRGNTIRQIIL [SMD1]
2.94
